- assay system: Nuclear receptor subfamily 1 group I member 3 (Homo sapiens, UniProt Q14994)
- Sequence (Q14994 whole entry): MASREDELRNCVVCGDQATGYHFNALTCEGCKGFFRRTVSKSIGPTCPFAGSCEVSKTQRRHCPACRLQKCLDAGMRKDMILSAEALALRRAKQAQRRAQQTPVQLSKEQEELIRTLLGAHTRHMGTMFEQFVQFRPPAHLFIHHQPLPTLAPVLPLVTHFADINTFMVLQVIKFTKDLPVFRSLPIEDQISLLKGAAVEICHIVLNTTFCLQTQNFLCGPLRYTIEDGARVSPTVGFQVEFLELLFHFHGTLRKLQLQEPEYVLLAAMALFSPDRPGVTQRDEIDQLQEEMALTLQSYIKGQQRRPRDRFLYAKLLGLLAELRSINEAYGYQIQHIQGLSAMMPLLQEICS
- assay procedure: Ratio of Emax to EC50 for human constitutive androstane receptor expressed in HepG2 cells co-expressing CYP2B6
property measured: Ratio (µM⁻¹)

INSERT INTO assay_data (entry_smiles, property_measured, observed_result) VALUES
  ('COc1ccc(-c2nc3sccn3c2CNCCc2ccc(Cl)c(Cl)c2)cc1', 'Ratio', 4.3),
  ('CC(C)(C)c1ccc(-c2nc3sccn3c2CNCCc2ccc(Cl)c(Cl)c2)cc1', 'Ratio', 0.74),
  ('Clc1ccc(CCNCc2c(-c3ccccc3)nc3sccn23)cc1Cl', 'Ratio', 12),
  ('FC(F)(F)c1ccc(-c2nc3sccn3c2CNCCc2ccc(Cl)c(Cl)c2)cc1', 'Ratio', 1.7),
  ('Clc1ccc(-c2nc3occn3c2CNCCc2ccc(Cl)c(Cl)c2)cc1', 'Ratio', 2.3);
